Origin of the recorded values: patent US7112584B2

Would you mind telling me the reported Edema Inhibition with 3 mg/kg of each entry?
# Test system: croton oil-induced inflammation
# Run Description: croton oil-induced ear inflammation, edema formation in mice
# Type: in vivo
# Condition Label: 3 mg/kg, systemic, two hours before croton oil, ear weight
# Protocol: The antiinflammatory actions of the compounds of general formula I were tested in the animal experiment by tests in the croton oil-induced inflammation in rats and mice (J. Exp. Med. (1995), 182, 99–108). […] After 16–24 hours, the ear weight was measured as a yardstick of the inflammatory edema, the peroxidase activity was measured as a yardstick of the invasions of granuloctyes, and the elastase activity was measured as a yardstick of the invasion of neutrophilic granuloctyes. […]
The answer is to be given in %; state only the numeric part.

**Query** Let me know recorded Edema Inhibition with 3 mg/kg for Cc1noc(=O)c2ccc(NC(=O)C(O)(CC3(c4cc(F)ccc4O)CCC3)C(F)(F)F)cc12 (single isomer, unassigned) , thanks.
**Result** 34

**Query** Let me know recorded Edema Inhibition with 3 mg/kg for C[C@]12C=CC(=O)C=C1CC[C@@H]1[C@@H]2[C@@H](O)C[C@@]2(C)[C@H]1CC[C@]2(O)C(=O)CO [Prednisolone, reference compound] , thanks.
**Result** 35

**Query** Let me know recorded Edema Inhibition with 3 mg/kg for Cc1noc(=O)c2ccc(NC(=O)C(O)(CC(C)(C)c3cccc4c3OCO4)C(F)(F)F)cc12 (single isomer, unassigned; (+)) , thanks.
**Result** 55

**Query** Let me know recorded Edema Inhibition with 3 mg/kg for CCc1noc(=O)c2ccc(NC(=O)C(O)(CC(C)(C)c3cccc4ccoc34)C(F)(F)F)cc12 (single isomer, unassigned; (+)) , thanks.
**Result** 33

**Query** Let me know recorded Edema Inhibition with 3 mg/kg for Cc1noc(=O)c2ccc(NC(=O)C(O)(CC(C)(C)c3cc(Br)ccc3O)C(F)(F)F)cc12 (single isomer, unassigned; (+)) , thanks.
**Result** 22

* * *

Would you mind telling me the reported Induction Factor for TAT with 3 mg/kg of each entry?
# System: tyrosinamino transferase (TAT)
# Run Description: induction of tyrosinamino transferase (TAT) in liver homogenates
# Type: in vivo
# Condition Label: mice, 3 mg/kg, 8 hours after administration, vs untreated control
Respond with the number and no other words.

**Query** Quote tyrosinamino transferase (TAT) Induction Factor for TAT with 3 mg/kg for entry Cc1noc(=O)c2ccc(NC(=O)C(O)(CC(C)(C)c3cccc4ccoc34)C(F)(F)F)cc12 (single isomer, unassigned) [Example 23] .
**Result** 1.1

**Query** Quote tyrosinamino transferase (TAT) Induction Factor for TAT with 3 mg/kg for entry Cc1noc(=O)c2ccc(NC(=O)C(O)(CC(C)(C)c3cc(Br)ccc3O)C(F)(F)F)cc12 (single isomer, unassigned; (+)) [Example 7] .
**Result** 1.2

**Query** Quote tyrosinamino transferase (TAT) Induction Factor for TAT with 3 mg/kg for entry C[C@]12C=CC(=O)C=C1CC[C@@H]1[C@@H]2[C@@H](O)C[C@@]2(C)[C@H]1CC[C@]2(O)C(=O)CO [Prednisolone, reference compound] .
**Result** 2.6

**Query** Quote tyrosinamino transferase (TAT) Induction Factor for TAT with 3 mg/kg for entry Cc1noc(=O)c2ccc(NC(=O)C(O)(CC3(c4cc(F)ccc4O)CCC3)C(F)(F)F)cc12 (single isomer, unassigned) [Example 29] .
**Result** 1.0

**Query** Quote tyrosinamino transferase (TAT) Induction Factor for TAT with 3 mg/kg for entry Cc1noc(=O)c2ccc(NC(=O)C(O)(CC(C)(C)c3cccc4c3OCO4)C(F)(F)F)cc12 (single isomer, unassigned; (+)) [Example 2] .
**Result** 1.4
